pIC50: −log10 of the molar value.
// endpoint pIC50 / system KDR (h) (VEGFR2) (Homo sapiens, UniProt P35968)
RECORDED METRIC: pIC50

Problem: Specify reported pIC50 for the molecule shown: `COc1cc(OC)cc(N(CCO)c2ccc3ncc(-c4ccc(OC)nc4)nc3c2)c1`
Result: 6.13

Problem: Specify reported pIC50 for the molecule shown: `COc1cc(OC)cc(N(CCO)c2ccc3ncc(-c4ccnc(C(=O)NCCCCCO)c4)nc3c2)c1`
Result: 6.16

Problem: Specify reported pIC50 for the molecule shown: `COc1cc(OC)cc(N(CC2CC2)c2ccc3ncc(-c4cc[nH]c4)nc3c2)c1`
Result: 6.17

---

MEASURED ON: FGFR1 (h) (Homo sapiens, UniProt P11362)
Sequence (P11362 22-822): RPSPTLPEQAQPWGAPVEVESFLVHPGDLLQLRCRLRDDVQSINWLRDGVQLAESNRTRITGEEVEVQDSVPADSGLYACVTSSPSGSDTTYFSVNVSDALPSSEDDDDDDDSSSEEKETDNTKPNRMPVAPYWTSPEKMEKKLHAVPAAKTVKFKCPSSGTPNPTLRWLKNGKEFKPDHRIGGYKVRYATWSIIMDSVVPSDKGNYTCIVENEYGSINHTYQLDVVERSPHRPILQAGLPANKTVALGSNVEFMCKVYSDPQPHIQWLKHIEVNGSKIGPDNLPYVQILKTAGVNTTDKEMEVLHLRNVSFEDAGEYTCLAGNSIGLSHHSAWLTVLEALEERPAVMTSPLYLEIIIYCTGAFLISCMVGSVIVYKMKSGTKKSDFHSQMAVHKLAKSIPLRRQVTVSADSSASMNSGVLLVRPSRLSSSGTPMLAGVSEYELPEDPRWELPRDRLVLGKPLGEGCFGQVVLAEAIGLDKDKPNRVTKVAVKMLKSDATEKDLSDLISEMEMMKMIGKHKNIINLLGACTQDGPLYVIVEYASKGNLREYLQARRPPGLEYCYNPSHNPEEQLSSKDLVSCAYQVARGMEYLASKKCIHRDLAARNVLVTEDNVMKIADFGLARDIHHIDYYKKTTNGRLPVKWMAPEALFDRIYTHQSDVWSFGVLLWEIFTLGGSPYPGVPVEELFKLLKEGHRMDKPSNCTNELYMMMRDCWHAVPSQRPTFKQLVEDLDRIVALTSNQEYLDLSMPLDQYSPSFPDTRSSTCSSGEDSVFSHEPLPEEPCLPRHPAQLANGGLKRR
EXPERIMENT NOTES: FGFR1 (enzymatic assay), TR-FRET
Type: biochemical
TEST CONTEXT: read-out: FGFR 1 pIC50 (converted)
# Lookup of reported IC50 keyed by entry

Here's what some known entries look like.
Problem: Identify measured IC50 obtained with FGFR1 (h) (Homo sapiens, UniProt P11362) for COc1cc(OC)cc(N(CC(O)CO)c2ccc3ncc(-c4ccc(N)nc4)nc3c2)c1 (stereo not drawn) [Compound 74] .
Result: 7.24 nM

Problem: Identify measured IC50 obtained with FGFR1 (h) (Homo sapiens, UniProt P11362) for COc1cc(OC)cc(N(CC2CC2)c2ccc3ncc(-c4nnnn4C)nc3c2)c1 [Compound 83] .
Result: > 1000 nM

Kindly review the next molecule as well.
Problem: Identify measured IC50 obtained with FGFR1 (h) (Homo sapiens, UniProt P11362) for COc1cc(OC)cc(N(CC2CC2)c2ccc3ncc(-c4cccn4C)nc3c2)c1 [Compound 103] .
Result: > 1000 nM

---

MEASURED ON: FGFR2 (h) (Homo sapiens, UniProt P21802)
Sequence (P21802 22-821): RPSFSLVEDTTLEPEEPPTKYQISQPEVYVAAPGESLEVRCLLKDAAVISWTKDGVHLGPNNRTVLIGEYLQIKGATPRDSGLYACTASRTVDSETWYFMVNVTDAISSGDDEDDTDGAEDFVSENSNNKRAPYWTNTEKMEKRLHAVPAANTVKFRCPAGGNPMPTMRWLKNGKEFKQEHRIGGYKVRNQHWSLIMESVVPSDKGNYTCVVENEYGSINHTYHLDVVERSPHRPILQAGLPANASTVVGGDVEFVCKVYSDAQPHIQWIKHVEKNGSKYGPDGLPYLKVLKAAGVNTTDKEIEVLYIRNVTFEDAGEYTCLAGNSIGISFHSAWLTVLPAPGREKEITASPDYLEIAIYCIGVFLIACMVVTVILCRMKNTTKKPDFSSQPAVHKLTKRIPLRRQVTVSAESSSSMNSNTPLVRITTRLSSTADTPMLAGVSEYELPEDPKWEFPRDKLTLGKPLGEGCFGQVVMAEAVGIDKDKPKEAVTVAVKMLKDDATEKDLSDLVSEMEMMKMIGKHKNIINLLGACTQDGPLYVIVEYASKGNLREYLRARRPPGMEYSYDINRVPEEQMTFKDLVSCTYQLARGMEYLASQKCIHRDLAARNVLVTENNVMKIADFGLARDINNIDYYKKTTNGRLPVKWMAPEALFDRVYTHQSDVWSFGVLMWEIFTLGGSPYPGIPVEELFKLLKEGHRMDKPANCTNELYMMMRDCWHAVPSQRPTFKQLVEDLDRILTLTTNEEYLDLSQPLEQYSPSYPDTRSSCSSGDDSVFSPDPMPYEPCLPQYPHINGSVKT
EXPERIMENT NOTES: FGFR2 (enzymatic assay), TR-FRET
Assay type: biochemical
TEST CONTEXT: read-out: FGFR 2 pIC50 (converted)
Procedure: In a final reaction volume of 30 μL, FGFR2 (h) (150 ng/ml) was incubated with 50 mM HEPES pH 7.5, 6 mM MnCl2, 1 mM DTT, 0.1 mM Na3VO4, 0.01% Triton-X-100, 500 nM Btn-Flt3 and 0.4 μM ATP in the presence of compound (1% DMSO final). […] Time-Resolved Fluorescence Resonance Energy Transfer (TR-FRET) signal (ex340 nm. Em 620 nm, em 655 nm) was measured afterwards and results are expressed in (Relative Fluorescence Units).
RECORDED METRIC: IC50

Problem: Specify reported IC50 for the compound shown: COc1cc(OC)cc(N(CC2CC2)c2ccc3ncc(-c4ocnc4C)nc3c2)c1 [Compound 104]
Result: ~417 nM

Kindly review the next compound as well.
Problem: Specify reported IC50 for the compound shown: COCCCN(c1cc(OC)cc(OC)c1)c1ccc2ncc(-c3ccn(C)c3)nc2c1 [Compound 3]
Result: 19.5 nM

---

Where a name gives a salt, the structure may show the parent alone.
RECORDED METRIC: melting point (°C)

Problem: Specify reported melting point for the molecule shown: `COc1cc(OC)cc(N(CC2CC2)c2ccc3ncc(-c4ccnc(N5CCOCC5)c4)nc3c2)c1`
Result: 162

Problem: Specify reported melting point for the molecule shown: `COc1cc(OC)cc(N(CCO)c2ccc3ncc(-c4ccc(N5CCN(C(=O)OC(C)(C)C)CC5)cc4)nc3c2)c1`
Result: 80

Problem: Specify reported melting point for the molecule shown: `COc1cc(OC)cc(N(CCCO)c2ccc3ncc(-c4ccnc(-c5ccnc(Cl)c5)c4)nc3c2)c1`
Result: 172

Problem: Specify reported melting point for the molecule shown: `COc1cc(OC)cc(N(CCCNCC(=O)O)c2ccc3ncc(-c4ccnc(C(=O)NCCCCN)c4)nc3c2)c1`
Result: 64

(1) COc1cc(OC)cc(N(CCO)c2ccc3ncc(-c4ccc(N5CCNCC5)cc4)nc3c2)c1
(2) COc1cc(OC)cc(N(CC2CC2)c2ccc3ncc(C(=O)NCCN4CCOCC4)nc3c2)c1
Problem: When the recorded melting point values are compared, which is smaller: that of 1 or that of 2 ? Answer by stating the label of the chosen item.
Result: 2
(2: 112 °C, 1: 194 °C)

(A) COc1cc(OC)cc(N(CCNC(C)C)c2ccc3ncc(C(=O)N4CCN(C)CC4)nc3c2)c1 (as salt: HCl) (hydrate or solvate)
(B) COc1cc(OC)cc(N(CC2CC2)c2ccc3ncc(-c4cnnn4C)nc3c2)c1
(C) COc1cc(OC)cc(N(CCCNCC(F)(F)F)c2ccc3ncc(-c4ccnc(C(=O)NCCCN)c4)nc3c2)c1
Problem: List items by melting point in falling order. The response must list the labels following the requested ordering.
Result: A, B, C

(a) COc1cc(OC)cc(N(CC2CC2)c2ccc3ncc(-c4ccnn4C)nc3c2)c1
(b) COc1cc(OC)cc(N(CCCO)c2ccc3ncc(-c4ccnc(C(=O)N5CCOCC5)c4)nc3c2)c1
(c) CNC(=O)c1cc(-c2cnc3ccc(N(CCNC(C)C)c4cc(OC)cc(OC)c4)cc3n2)ccn1
Problem: List items by melting point in falling order. The response must list the labels following the requested ordering.
Result: b, a, c
(b: 190 °C, a: 132 °C, c: 68 °C)

(I) CNCCN(c1cc(OC)cc(OC)c1)c1ccc2ncc(-c3ccc(NC(=O)OC(C)(C)C)nc3)nc2c1
(II) COc1cc(OC)cc(N(CCCNCC(F)(F)F)c2ccc3ncc(-c4ccnc(C(=O)NCCCCCO)c4)nc3c2)c1
Problem: When the recorded melting point values are compared, which is smaller: that of I or that of II ? Answer by stating the label of the chosen item.
Result: II
